- Tested on: PC-3 prostate
- assayText: NCI tumour cell line growth inhibition, 48 h
propertyName: GI50

compound=N#Cc1c(-c2ccc(Cl)cc2)n(O)c2ccccc12 propertyname=GI50 recordedmeasurement="2.85 µM"
compound=CCCCCCCCCCCCCCCCCC1=NCCN1CS(=O)(=O)O propertyname=GI50 recordedmeasurement="11.4 µM"
compound=ClC1=C(Cl)C(Cl)=C(Cl)C1=C/C=C/c1ccccc1 propertyname=GI50 recordedmeasurement="0.276 µM"
compound=OCCCN=NNc1ccc(-c2nc3ccccc3[nH]2)cc1 propertyname=GI50 recordedmeasurement="24.1 µM"
compound=COc1cc(/C=C/c2cc(/C=C/c3ccc(O)c(OC)c3)n(-c3c(C)cccc3C)c(=O)n2)ccc1O propertyname=GI50 recordedmeasurement="1.17 µM"
compound="CN(C)c1ccc(C(=C2C=CC(=[N+](C)C)C=C2)c2ccc(N(C)C)cc2)cc1 (tested in a mixture with another compound)" propertyname=GI50 recordedmeasurement="0.0368 µM"
compound=CCCCCCCC/C=C/CCCCCCCCC1=NCCN1CCO propertyname=GI50 recordedmeasurement="2.61 µM"
compound=COc1ccc(C(=O)c2ccc(OC)c(OC)c2OC)cc1 propertyname=GI50 recordedmeasurement="3.21 µM"
compound=CC(=O)c1ccc(NC(=O)CSc2nnc(-c3cc(-c4ccc(C)cc4)nc4ccccc34)o2)cc1 propertyname=GI50 recordedmeasurement="4.36 µM"
compound=CC[C@H]1CN2CCc3cc(OC)c(OC)cc3[C@@H]2C[C@@H]1C[C@H]1NCCc2cc(O)c(OC)cc21 propertyname=GI50 recordedmeasurement="0.0243 µM"
compound=COc1cc(C(=O)/C=C/c2cc(C(=O)c3cc(OC)c(OC)c(OC)c3)ccc2OC)ccc1N propertyname=GI50 recordedmeasurement="1.8 µM"
compound=O=C(OCc1ccccc1)N1CCN(/[N+]([O-])=N/Oc2ccc([N+](=O)[O-])cc2[N+](=O)[O-])CC1 propertyname=GI50 recordedmeasurement="14.2 µM"

* * *

Catalogue of compounds with associated TGI
- System: CAKI-1 renal
- assayText: NCI tumour cell line growth inhibition, 48 h
propertyName: TGI

compound=CCn1c2c(n(CC)c1=S)-c1c(n(CC)c(=S)n1CC)SSSS2 assayedtarget="CAKI-1 renal" propertyname=TGI recordedmeasurement="33.1 µM"
compound="COC1=CC(=O)[C@H]2[C@H](C)C(c3ccccc3)[C@@]2(C)C1=O (stereo partly specified)" assayedtarget="CAKI-1 renal" propertyname=TGI recordedmeasurement="> 100 µM"
compound=OCCCN=NNc1ccc(-c2nc3ccccc3[nH]2)cc1 assayedtarget="CAKI-1 renal" propertyname=TGI recordedmeasurement="39.3 µM"
compound="CC(C)C1OC(=O)C=C1Sc1ccccc1 (stereo unspecified)" assayedtarget="CAKI-1 renal" propertyname=TGI recordedmeasurement="> 100 µM"
compound=CCCCn1c(C)c(C(=O)OCC)s/c1=N/Nc1nc2ccccc2nc1-c1ccccc1 assayedtarget="CAKI-1 renal" propertyname=TGI recordedmeasurement="> 100 µM"
compound=CC(C)NC(=O)CN1CCN(C2=CC(=O)c3c(O)ccc(O)c3C2=O)CC1 assayedtarget="CAKI-1 renal" propertyname=TGI recordedmeasurement="> 60.7 µM"

* * *

- Test system: HL-60(TB) leukemia
- assayText: NCI tumour cell line growth inhibition, 48 h
Measured TGI of individual entries
propertyName: TGI

compound=CC/C=C1\N=C(c2ccc(Cl)cc2)OC1=O assayedtarget="HL-60(TB) leukemia" propertyname=TGI recordedmeasurement="> 100 µM"
compound="CC1(c2nc3cc(Cl)c(Cl)cc3[nH]2)CCC(CO)C(C)(C)O1 (stereo unspecified)" assayedtarget="HL-60(TB) leukemia" propertyname=TGI recordedmeasurement="36.7 µM"
compound=COc1cc(C(=O)/C=C/c2cc(C(=O)c3cc(OC)c(OC)c(OC)c3)ccc2OC)ccc1N assayedtarget="HL-60(TB) leukemia" propertyname=TGI recordedmeasurement="6.82 µM"
compound=CC(C)[C@@]12C[C@@H](OC(=O)[C@H]3CO3)[C@@](C)(O1)[C@@H]1CC[C@@H](C)[C@H]1[C@@H]2OC(=O)/C=C/c1ccccc1 assayedtarget="HL-60(TB) leukemia" propertyname=TGI recordedmeasurement="44.5 µM"
compound=O=C(NNC(=S)Nc1ccccc1)c1ccccc1Nc1ccccc1C(=O)NNC(=S)Nc1ccccc1 assayedtarget="HL-60(TB) leukemia" propertyname=TGI recordedmeasurement="> 100 µM"
compound=COc1ccc(/C=C2\CCCCC2=O)cc1 assayedtarget="HL-60(TB) leukemia" propertyname=TGI recordedmeasurement="> 100 µM"
